Numbers sourced from PubChem BioAssay.

# assay: sensitizers of A549 cells to miR-34 induction, primary screen, imaging, A549 dox-inducible miR-34, nuclei and caspase counts (AID 1347080); further: test concentration not given here
# condition_notes: A549 miR-34 inducible, Hoechst nuclei count, 48 h; measured here: relative caspase fold change +Dox/-Dox
Respond with t for fold change values of 3 and above, f for values below.

Previously resolved entries follow.
molecule	class_label
CCC(C)C(=O)O[C@H]1C[C@H](O)C=C2C=C[C@H](C)[C@H](CC[C@@H](O)C[C@@H](O)CC(=O)O)C21 (stereo partly drawn)	t
CCN[C@@H]1C[C@H](N)[C@@H](O[C@H]2OC(CN)=CC[C@H]2N)[C@H](O)[C@H]1OC1OC[C@](C)(O)[C@H](NC)[C@H]1O (stereo partly drawn)	t
Nc1ccc2cn[nH]c2c1	f
C=C1CC[C@H](O)C/C1=C/C=C1\CCCC2(C)C1CCC2C(C)CCCC(C)C (stereo partly drawn)	f

q: Hi, just wondering whether COc1cccc2c1C(=O)c1c(O)c3c(c(O)c1C2=O)C[C@@](O)(C(=O)CO)C[C@@H]3OC1C[C@H](N)[C@H](O)[C@H](C)O1 (stereo partly drawn) shows fold change of 3 or higher.
a: f

q: Hi, just wondering whether "O=C(O)Cc1ccc([N+](=O)[O-])cc1" shows fold change of 3 or higher.
a: f

q: Hi, just wondering whether CN[C@@H]1C(O)[C@@H](O[C@@H]2[C@@H](O)[C@H](O[C@H]3OC(CN)=CC[C@H]3N)[C@@H](N)C[C@H]2N)OC[C@]1(C)O (stereo partly drawn) shows fold change of 3 or higher.
a: t

q: Hi, just wondering whether "O=[N+]([O-])O[C@@H]1CO[C@H]2[C@@H]1OC[C@@H]2O" shows fold change of 3 or higher.
a: t
